System: DmEcR-CDEF
experiment.description: VP16/DmEcR-CDEF wild-type and mutants, 6xEcRE β-gal reporter transactivation in insect L57 cells
Type: cell-based, Drosophila melanogaster
condition.info: 1 μM 20-hydroxyecdysone, VP16/DmEcR-CDEF
readout.kind: Fold increase over WT, 1 μM 20-hydroxyecdysone (fold)
Reply numerically in fold, unit not repeated.

Which Fold increase over WT, 1 μM 20-hydroxyecdysone reading was recorded for the molecule C217A: DmEcR-CDEF LBD substitution mutant, Cysteine (C) to Alanine (A) (protein, Drosophila melanogaster) LTYNQLAVIYKLIWYQDGYEQPSEEDLRRIMSQPDENESQTDVSFRHITEITILTVQLIVEFAKGLPAFTKIPQEDQITLLKACSSEVMMLRMARRYDHSSDSIFFANNRSYTRDSYKMAGMADNIEDLLHFCRQMFSMKVDNVEYALLTAIVIFSDRPGLEKAQLVEAIQSYYIDTLRIYILNRHCGDSMSLVFYAKLLSILTELRTLGNQNAEMAFSLKLKNRKLPKFLEEIWDV ? 0.48
